- system: T1, Lsb3, P43603
- T1 sequence (P43603 385-451, looked up): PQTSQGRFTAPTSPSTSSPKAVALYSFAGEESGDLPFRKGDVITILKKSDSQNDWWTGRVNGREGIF
- experiment_notes: SPOT array
- test_parameters: median of control spots 406
readout_name: SPOT intensity
Give bare numbers.

Previously resolved entries follow.
| binder | SPOT intensity |
| --- | --- |
| KDKSRPPRPPPKPLH | 162 |
| MPAPPPPPPPPPGAF | 0 |
| PLRRTVMSLPGNHDI | 0 |
| HKVLRPFLLRRLKKD | 0 |
| RKLRTVPGVPLIHLT | 2 |

Hello, I would appreciate it if you could give SPOT intensity for each entry below.
1. PSRRDSLSIPRAVDA
2. LKQRFFLMFPKSIIW

1. 1
2. 0

Reference for the values: paper PMC2756588
